settings: in isobutanol, 293.15 K
measurementType: solubility (mole fraction)
Just the number.

Value of measured solubility (mole fraction) for the entry "CC(C)[C@H](NC(=O)OCC1c2ccccc2-c2ccccc21)C(=O)O" : 0.0127

----------
settings: in dimethyl carbonate, 308.15 K
measurementType: solubility (mole fraction)

Short answer for "CC(C)[C@H](NC(=O)OCC1c2ccccc2-c2ccccc21)C(=O)O" : solubility (mole fraction) was 0.016

----------
conditions: in isobutanol, 303.15 K
measurementType: solubility (mole fraction)
# output: bare number, no unit

Recorded solubility (mole fraction) (molecule "CC(C)[C@H](NC(=O)OCC1c2ccccc2-c2ccccc21)C(=O)O" ): 0.0186

----------
conditions: in n-propanol, 283.15 K
measurementType: solubility (mole fraction)
Just the number, please.

Item: "CC(C)[C@H](NC(=O)OCC1c2ccccc2-c2ccccc21)C(=O)O" | solubility (mole fraction): 0.0141

----------
conditions: in methanol, 288.15 K
measurementType: solubility (mole fraction)

Notebook: "CC(C)[C@H](NC(=O)OCC1c2ccccc2-c2ccccc21)C(=O)O" , solubility (mole fraction) read as 0.0259

----------
conditions: in methanol, 318.15 K
measurementType: solubility (mole fraction)
Enter a number only.

Input "CC(C)[C@H](NC(=O)OCC1c2ccccc2-c2ccccc21)C(=O)O" . Output solubility (mole fraction): 0.0846

----------
conditions: in acetone, 293.15 K
measurementType: solubility (mole fraction)
Just the number, please.

Entry "CC(C)[C@H](NC(=O)OCC1c2ccccc2-c2ccccc21)C(=O)O" , solubility (mole fraction) reported as 0.0568

----------
conditions: in sec-butanol, 283.15 K
measurementType: solubility (mole fraction)

For this compound ( "CC(C)[C@H](NC(=O)OCC1c2ccccc2-c2ccccc21)C(=O)O" ), measured solubility (mole fraction) is 0.016

----------
conditions: in 2-butanone, 313.15 K
measurementType: solubility (mole fraction)
// return a plain number; no unit text

For reference, reported solubility (mole fraction) for "CC(C)[C@H](NC(=O)OCC1c2ccccc2-c2ccccc21)C(=O)O" stands at 0.0793

----------
conditions: in n-butanol, 303.15 K
measurementType: solubility (mole fraction)
The reply should be a number, written without any unit.

Summary for this compound, "CC(C)[C@H](NC(=O)OCC1c2ccccc2-c2ccccc21)C(=O)O" : solubility (mole fraction) is 0.0287

----------
conditions: in n-propanol, 293.15 K
measurementType: solubility (mole fraction)
Response field accepts a number only; no unit should be typed.

Lab note: "CC(C)[C@H](NC(=O)OCC1c2ccccc2-c2ccccc21)C(=O)O" gave solubility (mole fraction) of 0.0199

----------
settings: in isopropanol, 318.15 K
measurementType: solubility (mole fraction)
No unit in the answer, only the number.

The reported value for "CC(C)[C@H](NC(=O)OCC1c2ccccc2-c2ccccc21)C(=O)O" in terms of solubility (mole fraction) is 0.0533

----------
settings: in isopropanol, 323.15 K
measurementType: solubility (mole fraction)

For reference, reported solubility (mole fraction) for "CC(C)[C@H](NC(=O)OCC1c2ccccc2-c2ccccc21)C(=O)O" stands at 0.071

----------
details: in isopropanol, 298.15 K
measurementType: solubility (mole fraction)
Answer with a number only.

response.value for "CC(C)[C@H](NC(=O)OCC1c2ccccc2-c2ccccc21)C(=O)O" (field: solubility (mole fraction)) = 0.0204

----------
conditions: in isopentanol, 318.15 K
measurementType: solubility (mole fraction)
In your answer, state the number alone without any accompanying words.

Per the record, "CC(C)[C@H](NC(=O)OCC1c2ccccc2-c2ccccc21)C(=O)O" has solubility (mole fraction) of 0.0429

----------
settings: in isobutanol, 283.15 K
measurementType: solubility (mole fraction)
Answer as a number with no unit attached.

// field: solubility (mole fraction); key: "CC(C)[C@H](NC(=O)OCC1c2ccccc2-c2ccccc21)C(=O)O" ; value = 0.00967

----------
settings: in dimethyl carbonate, 303.15 K
measurementType: solubility (mole fraction)
Enter the number alone.

response.value for "CC(C)[C@H](NC(=O)OCC1c2ccccc2-c2ccccc21)C(=O)O" (field: solubility (mole fraction)) = 0.0131

----------
conditions: in isopentanol, 288.15 K
measurementType: solubility (mole fraction)

Entry "CC(C)[C@H](NC(=O)OCC1c2ccccc2-c2ccccc21)C(=O)O" — recorded solubility (mole fraction) = 0.0129

----------
conditions: in sec-butanol, 308.15 K
measurementType: solubility (mole fraction)
// return just the number, without any unit appended

// recorded solubility (mole fraction) for "CC(C)[C@H](NC(=O)OCC1c2ccccc2-c2ccccc21)C(=O)O" : 0.0435

----------
conditions: in n-butyl acetate, 303.15 K
measurementType: solubility (mole fraction)
A bare number is all that is needed in reply.

"CC(C)[C@H](NC(=O)OCC1c2ccccc2-c2ccccc21)C(=O)O" has a reported solubility (mole fraction) of 0.0234

----------
conditions: in isopropanol, 303.15 K
measurementType: solubility (mole fraction)
Enter the number alone.

# compound "CC(C)[C@H](NC(=O)OCC1c2ccccc2-c2ccccc21)C(=O)O" ; its solubility (mole fraction) = 0.0271

----------
conditions: in n-butyl acetate, 318.15 K
measurementType: solubility (mole fraction)
Form rule: numeric answer, no unit written next to it.

Given item "CC(C)[C@H](NC(=O)OCC1c2ccccc2-c2ccccc21)C(=O)O" , the value recorded as its solubility (mole fraction) is 0.0362

----------
conditions: in ethanol, 303.15 K
measurementType: solubility (mole fraction)
Give the value as a plain number.

Reported solubility (mole fraction) for "CC(C)[C@H](NC(=O)OCC1c2ccccc2-c2ccccc21)C(=O)O" was 0.0373
